# protocol-notes: Selectivity index, ratio of CC50 for human HRT18 cells to EC50 for Human coronavirus OC43 infected in human HRT18 cells
# Format: toxicity, cell-based
# assay-setup: read-out: Ratio CC50/EC50
measured-metric: selectivity ratio
Response field accepts a number only; no unit should be typed.

Which measured selectivity ratio value corresponds to CCN(CC)CCCC(C)Nc1ccnc2cc(Cl)ccc12.O=P(O)(O)O.O=P(O)(O)O (stereo unspecified) [CHLOROQUINE PHOSPHATE] ?
1370

---

# System: Human coronavirus OC43
# protocol-notes: Antiviral activity against Human coronavirus OC43 infected in human HRT18 cells after 4 days by qRT-PCR analysis
# Assay type: functional, cell-based
# assay-setup: Betacoronavirus 1, HRT-18, 96 h
measured-metric: EC50 (nM)
The reply should be a number in nM, with the unit left off.

Which measured EC50 value corresponds to CCN(CC)CCCC(C)Nc1ccnc2cc(Cl)ccc12.O=P(O)(O)O.O=P(O)(O)O (stereo unspecified) [CHLOROQUINE PHOSPHATE] ?
306
